Recorded IC50 values (Human FXIa (Homo sapiens (Human), UniProt P03951)) are given below.

COCc1nn(Cc2ccc(Cn3ccccc3=O)cc2)cc1C(=O)NCc1c(Cl)cccc1-n1cnnn1
> 40 µM
COc1ccc(-n2cnnn2)c(CNC(=O)c2cnn(Cc3cnc(N4CCCC4)nc3)c2)c1F [Reference Example K, reference compound]
0.076 µM

From here, focus on the item given below.
Item COCc1nn(Cc2ccc(Cn3ccccc3=O)cc2)cc1C(=O)NCc1cc(OC)cc(OC)c1 [Reference Example A, reference compound] was tested on Human FXIa (Homo sapiens (Human), UniProt P03951); the reported IC50 is > 40 µM

---

- measurement-target: Human FXIa (Homo sapiens (Human), UniProt P03951)
- Sequence (P03951 388-625): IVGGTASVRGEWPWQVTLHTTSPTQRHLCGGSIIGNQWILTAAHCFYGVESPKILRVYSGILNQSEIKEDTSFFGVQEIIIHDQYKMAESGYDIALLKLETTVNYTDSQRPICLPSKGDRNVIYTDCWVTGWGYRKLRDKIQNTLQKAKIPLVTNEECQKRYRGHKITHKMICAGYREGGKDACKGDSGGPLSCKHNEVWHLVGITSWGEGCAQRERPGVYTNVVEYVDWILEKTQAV
- Sequence (P03951 19-387): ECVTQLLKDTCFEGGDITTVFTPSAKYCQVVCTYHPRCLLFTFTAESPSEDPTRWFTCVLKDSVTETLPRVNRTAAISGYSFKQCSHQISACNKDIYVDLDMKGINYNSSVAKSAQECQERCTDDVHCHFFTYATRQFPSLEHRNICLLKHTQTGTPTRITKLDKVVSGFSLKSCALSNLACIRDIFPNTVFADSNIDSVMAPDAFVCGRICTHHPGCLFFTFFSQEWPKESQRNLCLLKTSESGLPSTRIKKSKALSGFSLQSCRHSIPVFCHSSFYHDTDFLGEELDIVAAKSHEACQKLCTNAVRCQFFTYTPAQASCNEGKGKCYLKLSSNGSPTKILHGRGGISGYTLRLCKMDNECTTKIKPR
measured-property: IC50

Here are 5 molecules together with their reported answers.
COCc1nn(Cc2ccc(Cn3cccn3)cc2)cc1C(=O)NCc1cccc(Cl)c1 [Reference Example I, reference compound]
> 40 µM
COCc1nn(Cc2ccc(Cn3ccccc3=O)cc2)cc1C(=O)NCc1nc(C)ccc1F [Example 27]
> 40 µM
COCc1nn(Cc2ccc(Cn3ccccc3=O)cc2)cc1C(=O)NCc1cc(OC)c(C)cn1 [Example 20]
> 40 µM
COc1cccc(CNC(=O)c2cn(Cc3ccc(N4CCCC4)nc3)nc2C(F)(F)F)c1F [Reference Example G, reference compound]
> 40 µM
COCc1nn(Cc2cnc3cc(Cl)ccc3c2)cc1C(=O)NCc1cccc(OC)c1F [Reference Example C, reference compound]
> 40 µM

Now turn to the next molecule.
Record Nc1nn(Cc2ccc(Cn3ccccc3=O)cc2)cc1C(=O)NCc1cc(Cl)ccc1-n1cnnn1 [Example 71] has Human FXIa (Homo sapiens (Human), UniProt P03951) IC50 equal to 4.6 µM
